# systemUnderTest: ATP-dependent translocase ABCB1 (Homo sapiens, UniProt P08183)
# Sequence (P08183 whole entry): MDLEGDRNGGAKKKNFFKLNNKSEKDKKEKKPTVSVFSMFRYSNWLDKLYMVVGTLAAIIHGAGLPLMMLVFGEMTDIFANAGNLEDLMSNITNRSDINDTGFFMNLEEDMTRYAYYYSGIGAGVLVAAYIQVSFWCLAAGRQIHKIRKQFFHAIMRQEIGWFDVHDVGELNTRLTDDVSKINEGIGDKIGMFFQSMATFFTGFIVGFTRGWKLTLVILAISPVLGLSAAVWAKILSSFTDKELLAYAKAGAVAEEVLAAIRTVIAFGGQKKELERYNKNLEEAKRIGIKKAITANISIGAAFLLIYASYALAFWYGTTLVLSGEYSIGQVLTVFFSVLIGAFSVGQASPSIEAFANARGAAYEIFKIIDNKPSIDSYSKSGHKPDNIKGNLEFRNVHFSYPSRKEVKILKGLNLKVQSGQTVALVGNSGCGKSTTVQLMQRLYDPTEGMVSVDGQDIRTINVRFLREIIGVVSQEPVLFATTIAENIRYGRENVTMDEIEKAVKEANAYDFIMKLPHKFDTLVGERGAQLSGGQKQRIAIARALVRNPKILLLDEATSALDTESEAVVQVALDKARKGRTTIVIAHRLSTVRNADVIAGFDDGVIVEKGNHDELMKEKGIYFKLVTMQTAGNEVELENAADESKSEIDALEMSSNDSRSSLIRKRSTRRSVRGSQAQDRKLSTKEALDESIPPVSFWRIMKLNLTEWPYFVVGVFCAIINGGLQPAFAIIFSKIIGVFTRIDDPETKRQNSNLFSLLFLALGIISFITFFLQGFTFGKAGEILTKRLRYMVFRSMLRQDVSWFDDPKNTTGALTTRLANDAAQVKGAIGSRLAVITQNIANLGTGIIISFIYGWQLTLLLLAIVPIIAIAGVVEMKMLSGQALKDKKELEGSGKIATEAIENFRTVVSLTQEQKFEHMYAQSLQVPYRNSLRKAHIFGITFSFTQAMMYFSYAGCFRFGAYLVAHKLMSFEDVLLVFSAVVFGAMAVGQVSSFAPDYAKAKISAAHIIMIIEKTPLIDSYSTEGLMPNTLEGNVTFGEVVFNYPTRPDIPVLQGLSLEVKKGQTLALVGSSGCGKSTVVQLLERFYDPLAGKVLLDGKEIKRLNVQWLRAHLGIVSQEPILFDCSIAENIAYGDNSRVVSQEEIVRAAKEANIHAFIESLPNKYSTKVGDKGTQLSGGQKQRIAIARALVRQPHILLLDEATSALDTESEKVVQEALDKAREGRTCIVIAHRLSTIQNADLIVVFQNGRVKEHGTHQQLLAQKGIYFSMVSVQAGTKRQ
# protocolSummary: TP_TRANSPORTER: Northern blot from LS174T cell
# Format: functional, cell-based
measuredEndpoint: Activity

compoundsmiles=C[C@@H]1C[C@H]2[C@@H]3CCC4=CC(=O)C=C[C@]4(C)[C@@]3(F)[C@@H](O)C[C@]2(C)[C@@]1(O)C(=O)CO measuredendpoint=Activity endpointresult="inducer [+]"
compoundsmiles=CO[C@H]1/C=C/O[C@@]2(C)Oc3c(C)c(O)c4c(O)c(c(/C=N/N5CCN(C)CC5)c(O)c4c3C2=O)NC(=O)/C(C)=C\C=C\[C@H](C)[C@H](O)[C@@H](C)[C@@H](O)[C@@H](C)[C@H](OC(C)=O)[C@@H]1C measuredendpoint=Activity endpointresult="inducer [+]"
compoundsmiles=Clc1ccccc1C(c1ccccc1)(c1ccccc1)n1ccnc1 measuredendpoint=Activity endpointresult="inducer [+]"
